Tested on: 377384-186-R-J1-PDC complex spheroid viability
Test: Anticancer human tumor 377384-186-R-J1-PDC patient-derived pancreatic carcinoma cell line growth inhibition [CLK]
Conditions: second compound 3.16 µM; first compound 0.000949 µM; active compounds read low
From the text: A high-throughput screen of multi-cell type tumor spheroids was designed to identify active combinations of […] and targeted small molecules. Complex spheroids include a stromal component modeled by human endothelial cells (HUVEC) and fibroblasts modeled by human mesenchymal stem cells (MSCs). […] Compounds. […] If the clinical Cmax for an agent had not been determined, the highest concentration tested was 10 microM. […]
I'd appreciate it if you could supply viability, T/C values for the items below.
The figure you give is taken to be in %; do not add the unit.

Requested field: viability, T/C. Item: CC(C)CC(NC(=O)C(Cc1ccccc1)NC(=O)c1cnccn1)B(O)O (centres undefined) + CNC(=O)c1ccc(Nc2nc(OC3CCCC3)c3c(-c4ccc5nc(C)oc5c4)c[nH]c3n2)c(OC)c1
14.8

Would you kindly repeat that for CC(C)CC(NC(=O)C(Cc1ccccc1)NC(=O)c1cnccn1)B(O)O (centres undefined) + CN1CCN(c2cc(C(=O)Nc3cc4cc(-c5cnn(C)c5)ccc4cn3)ccn2)CC1 ?
1.01

Would you kindly repeat that for C=CC(=O)Nc1cc(Nc2nccc(-c3cn(C)c4ccccc34)n2)c(OC)cc1N(C)CCN(C)C + CN1CCN(c2cc(C(=O)Nc3cc4cc(-c5cnn(C)c5)ccc4cn3)ccn2)CC1 ?
0.48

Would you kindly repeat that for C=CC(=O)Nc1cc(Nc2nccc(-c3cn(C)c4ccccc34)n2)c(OC)cc1N(C)CCN(C)C + CNC(=O)c1ccc(Nc2nc(OC3CCCC3)c3c(-c4ccc5nc(C)oc5c4)c[nH]c3n2)c(OC)c1 ?
20.1

---

I'd appreciate it if you could supply viability, T/C values for the items below.
Tested on: 377384-186-R-J1-PDC complex spheroid viability
Assay: Anticancer human tumor 377384-186-R-J1-PDC cell line growth inhibition [CLK];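 also: luminescence signal used as a stand-in for viable cells; spheroids exposed to agents for 7 days before reading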
Conditions: second compound 10 µM; first compound 0.1 µM; active compounds read low
From the text: A high-throughput screen of multi-cell type tumor spheroids was designed to identify active combinations of […] and targeted small molecules. Complex spheroids include a stromal component modeled by human endothelial cells (HUVEC) and fibroblasts modeled by human mesenchymal stem cells (MSCs). […] Compounds. […] If the clinical Cmax for an agent had not been determined, the highest concentration tested was 10 microM. […]
The figure you give is taken to be in %; do not add the unit.

Requested field: viability, T/C. Item: C=CC(=O)N1CCN(c2nc(=O)n(-c3c(C)ccnc3C(C)C)c3nc(-c4c(O)cccc4F)c(F)cc23)C(C)C1 (stereo not given) + CN1CCN(c2cc(C(=O)Nc3cc4cc(-c5cnn(C)c5)ccc4cn3)ccn2)CC1
0.59

Would you kindly repeat that for C=C(F)C(=O)N1CCN(c2nc(OCC3CCCN3C)nc3c2CCN(c2cccc4cccc(Cl)c24)C3)CC1CC#N (stereo not given) + CN1CCN(c2cc(C(=O)Nc3cc4cc(-c5cnn(C)c5)ccc4cn3)ccn2)CC1 ?
0.4

Would you kindly repeat that for COc1cccc2c1C(=O)c1c(O)c3c(c(O)c1C2=O)CC(O)(C(=O)CO)CC3OC1CC(N)C(O)C(C)O1 (stereo not given) + CN1CCN(c2cc(C(=O)Nc3cc4cc(-c5cnn(C)c5)ccc4cn3)ccn2)CC1 ?
0.33

Would you kindly repeat that for CCc1c2c(nc3ccc(O)cc13)-c1cc3c(c(=O)n1C2)COC(=O)[C@]3(O)CC + CNC(=O)c1ccc(Nc2nc(OC3CCCC3)c3c(-c4ccc5nc(C)oc5c4)c[nH]c3n2)c(OC)c1 ?
1.55

Would you kindly repeat that for CCN1CCN(Cc2ccc(Nc3ncc(F)c(-c4cc(F)c5nc(C)n(C(C)C)c5c4)n3)nc2)CC1 + CN1CCN(c2cc(C(=O)Nc3cc4cc(-c5cnn(C)c5)ccc4cn3)ccn2)CC1 ?
0.44

---

System: 377384-186-R-J1-PDC complex spheroid viability
Assay: Anticancer human tumor 377384-186-R-J1-PDC cell line growth inhibition [CLK];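 also: luminescence signal used as a stand-in for viable cells; spheroids exposed to agents for 7 days before reading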
Conditions: second compound 10 µM; first compound 3.16 µM; active compounds read low
value_kind: viability, T/C (%)
The figure you give is taken to be in %; do not add the unit.

Requested field: viability, T/C. Item: CCCS(=O)(=O)Nc1ccc(F)c(C(=O)c2c[nH]c3ncc(-c4ccc(Cl)cc4)cc23)c1F + CN1CCN(c2cc(C(=O)Nc3cc4cc(-c5cnn(C)c5)ccc4cn3)ccn2)CC1
0.66

Would you kindly repeat that for COc1cccc2c1C(=O)c1c(O)c3c(c(O)c1C2=O)CC(O)(C(=O)CO)CC3OC1CC(N)C(O)C(C)O1 (centres undefined) + CN1CCN(c2cc(C(=O)Nc3cc4cc(-c5cnn(C)c5)ccc4cn3)ccn2)CC1 ?
0.53

Would you kindly repeat that for CC(=O)O[C@H]1C(=O)[C@@]2(C)[C@H]([C@H](OC(=O)c3ccccc3)[C@]3(O)C[C@H](OC(=O)[C@H](O)[C@@H](NC(=O)c4ccccc4)c4ccccc4)C(C)=C1C3(C)C)[C@]1(OC(C)=O)CO[C@@H]1C[C@@H]2O + CNC(=O)c1ccc(Nc2nc(OC3CCCC3)c3c(-c4ccc5nc(C)oc5c4)c[nH]c3n2)c(OC)c1 ?
38.7

Would you kindly repeat that for C=CC(=O)N1CCN(c2nc(=O)n(-c3c(C)ccnc3C(C)C)c3nc(-c4c(O)cccc4F)c(F)cc23)C(C)C1 (centres undefined) + CN1CCN(c2cc(C(=O)Nc3cc4cc(-c5cnn(C)c5)ccc4cn3)ccn2)CC1 ?
1.07

Would you kindly repeat that for CC1(C)CCC(CN2CCN(c3ccc(C(=O)NS(=O)(=O)c4ccc(NCC5CCOCC5)c([N+](=O)[O-])c4)c(Oc4cnc5[nH]ccc5c4)c3)CC2)=C(c2ccc(Cl)cc2)C1 + CNC(=O)c1ccc(Nc2nc(OC3CCCC3)c3c(-c4ccc5nc(C)oc5c4)c[nH]c3n2)c(OC)c1 ?
19.2

Would you kindly repeat that for CCCS(=O)(=O)Nc1ccc(F)c(C(=O)c2c[nH]c3ncc(-c4ccc(Cl)cc4)cc23)c1F + CNC(=O)c1ccc(Nc2nc(OC3CCCC3)c3c(-c4ccc5nc(C)oc5c4)c[nH]c3n2)c(OC)c1 ?
31.1

Would you kindly repeat that for CC1COCCN1c1cc(C2(S(C)(=N)=O)CC2)nc(-c2ccnc3[nH]ccc23)n1 (centres undefined) + CN1CCN(c2cc(C(=O)Nc3cc4cc(-c5cnn(C)c5)ccc4cn3)ccn2)CC1 ?
1.37

Would you kindly repeat that for COC1C=CCC(C)C(C)S(=O)(=O)NC(=O)c2ccc3c(c2)N(CC2CCC21)CC1(CCCc2cc(Cl)ccc21)CO3 (centres undefined) + CN1CCN(c2cc(C(=O)Nc3cc4cc(-c5cnn(C)c5)ccc4cn3)ccn2)CC1 ?
0.53

Would you kindly repeat that for CC(Nc1ccc2c(c1)OCCn1cc(N3C(=O)OCC3C(F)F)nc1-2)C(N)=O (centres undefined) + CN1CCN(c2cc(C(=O)Nc3cc4cc(-c5cnn(C)c5)ccc4cn3)ccn2)CC1 ?
0.69

---

Tested on: 377384-186-R-J1-PDC complex spheroid viability
Test: Anticancer human tumor 377384-186-R-J1-PDC cell line growth inhibition [CLK];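 also: luminescence signal used as a stand-in for viable cells; spheroids exposed to agents for 7 days before reading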
Conditions: second compound 0.1 µM; first compound 0.000949 µM; active compounds read low
value_kind: viability, T/C (%)
The figure you give is taken to be in %; do not add the unit.

Requested field: viability, T/C. Item: C=CC(=O)Nc1cc(Nc2nccc(-c3cn(C)c4ccccc34)n2)c(OC)cc1N(C)CCN(C)C + CNC(=O)c1ccc(Nc2nc(OC3CCCC3)c3c(-c4ccc5nc(C)oc5c4)c[nH]c3n2)c(OC)c1
64.1

Would you kindly repeat that for CC(C)CC(NC(=O)C(Cc1ccccc1)NC(=O)c1cnccn1)B(O)O (centres undefined) + CN1CCN(c2cc(C(=O)Nc3cc4cc(-c5cnn(C)c5)ccc4cn3)ccn2)CC1 ?
94.8

Would you kindly repeat that for C=CC(=O)Nc1cc(Nc2nccc(-c3cn(C)c4ccccc34)n2)c(OC)cc1N(C)CCN(C)C + CN1CCN(c2cc(C(=O)Nc3cc4cc(-c5cnn(C)c5)ccc4cn3)ccn2)CC1 ?
109

Would you kindly repeat that for CC(C)CC(NC(=O)C(Cc1ccccc1)NC(=O)c1cnccn1)B(O)O (centres undefined) + CNC(=O)c1ccc(Nc2nc(OC3CCCC3)c3c(-c4ccc5nc(C)oc5c4)c[nH]c3n2)c(OC)c1 ?
44

---

Test system: 377384-186-R-J1-PDC complex spheroid viability
Experiment: Anticancer human tumor 377384-186-R-J1-PDC cell line growth inhibition [CLK]; active = viability on the fitted dose curve at most 10% of control; inactive = the rest;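 also: luminescence signal used as a stand-in for viable cells; spheroids exposed to agents for 7 days before reading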
Conditions: second compound 1 µM; first compound 10 µM
The reply should name one outcome from YES (active), NO (inactive)

What is the recorded call for this compound in the test? C=CC(=O)N1CCN(c2nc(=O)n(-c3c(C)ccnc3C(C)C)c3nc(-c4c(O)cccc4F)c(F)cc23)C(C)C1 (stereo not given) + CNC(=O)c1ccc(Nc2nc(OC3CCCC3)c3c(-c4ccc5nc(C)oc5c4)c[nH]c3n2)c(OC)c1
NO

Would you kindly repeat that for CC(CO)NC(=O)c1cc(-c2ccc(Cl)cc2)nn(-c2cnn(C)c2)c1=O (stereo not given) + CNC(=O)c1ccc(Nc2nc(OC3CCCC3)c3c(-c4ccc5nc(C)oc5c4)c[nH]c3n2)c(OC)c1 ?
NO

Would you kindly repeat that for CC(Nc1ccc2c(c1)OCCn1cc(N3C(=O)OCC3C(F)F)nc1-2)C(N)=O (stereo not given) + CN1CCN(c2cc(C(=O)Nc3cc4cc(-c5cnn(C)c5)ccc4cn3)ccn2)CC1 ?
YES

Would you kindly repeat that for COc1ccc([C@@H](O)c2cc(-c3ncnc4cc(N5CCOCC5)ccc34)c(F)cc2Cl)nn1 + CN1CCN(c2cc(C(=O)Nc3cc4cc(-c5cnn(C)c5)ccc4cn3)ccn2)CC1 ?
YES

Would you kindly repeat that for CC(Nc1ccc2c(c1)OCCn1cc(N3C(=O)OCC3C(F)F)nc1-2)C(N)=O (stereo not given) + CNC(=O)c1ccc(Nc2nc(OC3CCCC3)c3c(-c4ccc5nc(C)oc5c4)c[nH]c3n2)c(OC)c1 ?
NO

Would you kindly repeat that for CC1COCCN1c1cc(C2(S(C)(=N)=O)CC2)nc(-c2ccnc3[nH]ccc23)n1 (stereo not given) + CNC(=O)c1ccc(Nc2nc(OC3CCCC3)c3c(-c4ccc5nc(C)oc5c4)c[nH]c3n2)c(OC)c1 ?
YES

Would you kindly repeat that for C=C(F)C(=O)N1CCN(c2nc(OCC3CCCN3C)nc3c2CCN(c2cccc4cccc(Cl)c24)C3)CC1CC#N (stereo not given) + CN1CCN(c2cc(C(=O)Nc3cc4cc(-c5cnn(C)c5)ccc4cn3)ccn2)CC1 ?
YES

Would you kindly repeat that for COc1ccc([C@@H](O)c2cc(-c3ncnc4cc(N5CCOCC5)ccc34)c(F)cc2Cl)nn1 + CNC(=O)c1ccc(Nc2nc(OC3CCCC3)c3c(-c4ccc5nc(C)oc5c4)c[nH]c3n2)c(OC)c1 ?
NO

Would you kindly repeat that for O=c1[nH]cc(F)c(=O)[nH]1 + CNC(=O)c1ccc(Nc2nc(OC3CCCC3)c3c(-c4ccc5nc(C)oc5c4)c[nH]c3n2)c(OC)c1 ?
NO

Would you kindly repeat that for C#Cc1c(F)ccc2cc(O)cc(-c3ncc4c(N5CC6CCC(C5)N6)nc(OCC56CCCN5CC(F)C6)nc4c3F)c12 (stereo not given) + CN1CCN(c2cc(C(=O)Nc3cc4cc(-c5cnn(C)c5)ccc4cn3)ccn2)CC1 ?
YES
